biological target: NRAS G12C binding to BRAF RBD (Homo sapiens (Human), UniProt P01111+P62937, G12C); test: Ras-Raf disruption/FRET/MOA assay, NRAS G12C
Sequence (P01111 whole entry G12C): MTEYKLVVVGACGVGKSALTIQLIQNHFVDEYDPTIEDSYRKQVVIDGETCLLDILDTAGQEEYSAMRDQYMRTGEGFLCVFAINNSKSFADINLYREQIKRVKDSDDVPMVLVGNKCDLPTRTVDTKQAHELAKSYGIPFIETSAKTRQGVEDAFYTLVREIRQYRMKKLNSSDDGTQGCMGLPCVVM
Sequence (P62937 whole entry): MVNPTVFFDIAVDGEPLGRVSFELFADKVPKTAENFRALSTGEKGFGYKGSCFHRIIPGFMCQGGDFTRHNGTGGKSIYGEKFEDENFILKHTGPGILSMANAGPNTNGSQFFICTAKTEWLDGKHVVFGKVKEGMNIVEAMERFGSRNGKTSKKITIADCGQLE
pIC50: −log10 of the molar value.
Kindly state pIC50 for each of the entries shown.

I am curious: what pIC50 value has been reported for C=CC(=O)N1CC[C@H](C(=O)N(C)[C@H](C(=O)N[C@H]2Cc3csc(n3)-c3ccc4c(c3)c(c(-c3cc(N5CCN(C)CC5)cnc3[C@H](C)OC)n4CC(C)(F)F)CC(C)(C)COC(=O)[C@@H]3CCCN(N3)C2=O)C(C)C)C1 [Compound A410] ? 7.00 to 8.00

I am curious: what pIC50 value has been reported for CCn1c(-c2cccnc2[C@H](C)OC)c2c3cc(ccc31)-c1csc(n1)C[C@H](NC(=O)[C@H](C(C)C)N1CC[C@]3(CCN(C(=O)C#CC(C)(C)N(C)C)C3)C1=O)C(=O)N1CCC[C@H](N1)C(=O)OCC(C)(C)C2 (single isomer, unassigned) [Compound A425] ? 7.00 to 8.00

I am curious: what pIC50 value has been reported for C=CC(=O)N1CC[C@H](C(=O)N(C)[C@H](C(=O)N[C@H]2Cc3cc(O)cc(c3)-c3ccc4c(c3)c(c(-c3cccnc3COC)n4CC)CC(C)(C)COC(=O)[C@@H]3CCCN(N3)C2=O)C(C)C)C1 [Compound A137] ? 6.00 to 7.00

I am curious: what pIC50 value has been reported for C=CC(=O)C1CC[C@H](C(=O)N(C)[C@H](C(=O)N[C@H]2Cc3cccc(c3)-c3ccc4c(c3)c(c(-c3cccnc3[C@H](C)OC)n4CC)CC(C)(C)COC(=O)[C@@H]3CCCN(N3)C2=O)C(C)(C)F)C1 (stereo partly shown) [Compound A693] ? 6.00 to 7.00

I am curious: what pIC50 value has been reported for C=CC(=O)N(C)CCN1CCN(C(=O)N(C)[C@H](C(=O)N[C@H]2CN3CCC=C(C3)c3ccc4c(c3)c(c(-c3cccnc3[C@H](C)OC)n4CC)CC(C)(C)COC(=O)[C@@H]3CCCN(N3)C2=O)C(C)C)C[C@@H]1C [Compound A570] ? 6.00 to 7.00

I am curious: what pIC50 value has been reported for C=CC(=O)N(C)CC1CCN(C(=O)N(C)[C@H](C(=O)N[C@H]2Cc3nc(cs3)-c3ccc4c(c3)c(c(-c3cccnc3[C@H](C)OC)n4CC)CC(C)(C)COC(=O)[C@@H]3CCCN(N3)C2=O)C(C)C)CC1 (atropisomer, axis not shown) [Compound A629] ? 7.00 to 8.00

I am curious: what pIC50 value has been reported for CCn1c(-c2cccnc2[C@H](C)OC)c2c3cc(ccc31)-c1cnc(o1)C[C@H](NC(=O)[C@@H](COC1CN(C(=O)C#CC(C)(C)N(C)C)C1)C(C)C)C(=O)N1CCC[C@H](N1)C(=O)OCCC2 (atropisomer, axis not shown) [Compound A649] ? 7.00 to 8.00

I am curious: what pIC50 value has been reported for CCn1c(-c2cccnc2[C@H](C)OC)c2c3cc(ccc31)-c1csc(n1)C[C@H](NC(=O)[C@H](C(C)C)N(C)C(=O)C1CCN(C(=O)/C=C/CN(C)C)C3(CC3)C1)C(=O)N1CCC[C@H](N1)C(=O)OCC(C)(C)C2 (stereo partly shown) [Compound A701] ? 7.00 to 8.00

I am curious: what pIC50 value has been reported for CC[C@H](COC1CN(C(=O)C#CC(C)(C)N(C)C)C1)C(=O)N[C@H]1Cc2nc(cs2)-c2ccc3c(c2)c(c(-c2cccnc2[C@H](C)OC)n3CC)CC(C)(C)COC(=O)[C@@H]2CCCN(N2)C1=O (atropisomer, axis not shown) [Compound A660] ? > 8.00

I am curious: what pIC50 value has been reported for C=CC(=O)N1CC[C@H](C(=O)N(C)[C@H](C(=O)N[C@H]2Cc3cccc(c3)-c3ccc4c(c3)c(c(-c3cccnc3[C@H](C)OC)n4CC)CC(C)(C)COC(=O)[C@@H]3CCCN(N3)C2=O)C(C)C)C1 [Compound A114] ? < 5.00

I am curious: what pIC50 value has been reported for C=CC(=O)N1CC[C@H](C(=O)N(C)[C@H](C(=O)NC2C[C@@H]3CN(CCO3)c3ccc4c(c3)c(c(-c3cccnc3COC)n4CC)CC(C)(C)COC(=O)[C@@H]3CCCN(N3)C2=O)C(C)C)C1 (stereo partly shown) [Compound A318] ? < 5.00

I am curious: what pIC50 value has been reported for CCn1c(-c2cccnc2[C@H](C)OC)c2c3cc(ccc31)-c1cccc(c1)C[C@H](NC(=O)[C@H](C(C)C)N(C)C(=O)[C@H]1CCN(C(=O)C#C[C@@H]3CC(F)(F)CN3C)C1)C(=O)N1CCC[C@H](N1)C(=O)OCC(C)(C)C2 [Compound A526] ? 7.00 to 8.00

I am curious: what pIC50 value has been reported for CCn1c(-c2cccnc2[C@H](C)OC)c2c3cc(ccc31)-c1cc(O)cc(c1)C[C@H](NC(=O)[C@H](C(C)C)N(C)C(=O)[C@H]1CCC(C(=O)C#CCOC)C1)C(=O)N1CCC[C@H](N1)C(=O)OCC(C)(C)C2 (stereo partly shown) [Compound A266] ? > 8.00

I am curious: what pIC50 value has been reported for CC#CC(=O)N1CC[C@]2(CCC([C@H](C(=O)N[C@H]3Cc4nc(cs4)-c4ccc5c(c4)c(c(-c4cccnc4[C@H](C)OC)n5CC)CC(C)(C)COC(=O)[C@@H]4CCCN(N4)C3=O)C(C)C)C2=O)C1 (stereo partly shown) [Compound A511] ? 6.00 to 7.00

I am curious: what pIC50 value has been reported for CCn1c(-c2cccnc2[C@H](C)OC)c2c3cc(ccc31)-c1csc(n1)C[C@H](NC(=O)[C@H](C(C)C)N(C)C(=O)C1CCN(C(=O)/C=C/CN(C)C)C[C@@H]1C)C(=O)N1CCC[C@H](N1)C(=O)OCC(C)(C)C2 (stereo partly shown) [Compound A709] ? 7.00 to 8.00

I am curious: what pIC50 value has been reported for CCn1c(-c2cccnc2[C@H](C)OC)c2c3cc(ccc31)-c1cccc(c1)C[C@H](NC(=O)[C@H](C(C)C)N1CC[C@@]3(CCN(C(=O)C#CC(C)(C)N4CCC4)C3)C1=O)C(=O)N1CCC[C@H](N1)C(=O)OCC(C)(C)C2 (atropisomer, axis not shown) [Compound A733] ? 7.00 to 8.00
